# Test system: murine neural precursor cells (neurosphere cultures)
# methodNotes: HTS of LOPAC library against secondary neurosphere cultures, MTT proliferation assay at 3 μM, day 7 (z score, P value)
# Format: cell-based, mouse
# runParameters: LOPAC primary screen, neurosphere MTT proliferation, 3 μM, day 7
Structures can show the parent of a compound that is named as a salt.
readoutType: Z score

CN1C(C)(C)CCCC1(C)C [Pempidine tartrate] | −1.719
CN(N=O)c1ccc(O)c(O)c1 | 0.583
CC1=C(CC(=O)O)c2cc(F)ccc2/C1=C\c1ccc(S(C)(=O)=O)cc1 | 0.592
OC[C@H]1O[C@@H](n2cnc3c(NCCc4ccccc4)ncnc32)[C@H](O)[C@@H]1O | 0.531
CN(C)CCC(c1ccc(Br)cc1)c1ccccn1.O=C(O)/C=C\C(=O)O (single isomer, unassigned; (+)) [(+)-Brompheniramine maleate] | −3.976
O=c1c2ccccc2[se]n1-c1ccccc1 | −0.251
CN(C)CCCCSC(=N)N.Cl.Cl [SKF 91488 dihydrochloride] | −0.766
Cc1nc(N=Nc2ccc(S(=O)(=O)O)cc2S(=O)(=O)O)c(COP(=O)(O)O)c(C=O)c1O | 1.106
CC(=O)O[C@H]1C[C@@]2(C)[C@@H](C[C@@H](O)[C@H]3[C@@]4(C)CC[C@@H](O)[C@@H](C)[C@@H]4CC[C@@]32C)/C1=C(\CCC=C(C)C)C(=O)O [Fusidic acid sodium] | 2.045
CN(C)C(=O)Oc1cccc([N+](C)(C)C)c1 [Neostigmine bromide] | 1.228
COc1[nH]c2ccc(F)cc2c1C(=O)OCC1CCN(CCNS(C)(=O)=O)CC1.NS(=O)(=O)O [GR 125487 sulfamate salt] | −0.194
OC[C@H]1O[C@@H](n2cnc3c(N[C@H]4CC5CCC4C5)ncnc32)[C@H](O)[C@@H]1O (stereo partly drawn) [(S)-ENBA] | 0.208
CC(N/C(=N\C#N)Nc1ccncc1)C(C)(C)C (stereo not drawn) | −2.117
Cl.Cl.Cl.Ic1ccc(N2CCN(Cc3c[nH]c4ncccc34)CC2)cc1 [L-750,667 trihydrochloride] | −1.184
Ic1ccccc1CNC1C2CCN(CC2)C1C(c1ccccc1)c1ccccc1.O=C(O)C(=O)O [L-703,606 oxalate] | −0.507

FYI, the data here is from patent US8058243B2.
